Values compiled from patent US9801844B2.

Molecular target: Na+-K+-ATPase
Test: Enzymatic assay of ATPase activity
Conditions: purified enzyme, in vitro; read-out: 50% inhibition, IC50 value, of Na+-K+-ATPase activity
pIC50: −log10 of the molar value.
Assay Endpoint: pIC50

Data request: Fill in: pIC50 of COc1cc(/C=C/C(=O)CC(=O)/C=C/c2ccc(O)c(OC)c2)ccc1O is ___
Data returned: ~5.70
